Recorded values, source patent US20140235701.

- Experimental system: NGF (nerve growth factor) (Homo sapiens, UniProt P01138 P01138:122-241)
- Sequence (P01138 122-241, one chain of several): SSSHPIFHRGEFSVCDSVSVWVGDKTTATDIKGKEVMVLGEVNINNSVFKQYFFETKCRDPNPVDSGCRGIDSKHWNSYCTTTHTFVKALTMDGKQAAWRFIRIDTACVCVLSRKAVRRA
- Procedure summary: cell_activity; neurite; TF-1 0.022
- Experimental setup: tags: R&D Systems; chain copies: 2
pIC50: −log10 of the molar value.
Measurement label: pIC50

{"Binder": "GGGUCCUGGAUAAGAGUUUCCGUCUCGUAUCCUGUUACCC (ssRNA, as 82(25) except 2'-OMe A37) [SEQ ID NO: 82(47)]", "Recorded measurement": 10.34}
{"Binder": "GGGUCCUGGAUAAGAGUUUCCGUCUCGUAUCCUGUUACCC (ssRNA, as 82(25) except 2'-OMe A29) [SEQ ID NO: 82(46)]", "Recorded measurement": 10.48}
